# reported normalized RNA/DNA level without ligand (log10); entries follow
B1: library; a variant is named by its letters at N, in order (parent)
chain: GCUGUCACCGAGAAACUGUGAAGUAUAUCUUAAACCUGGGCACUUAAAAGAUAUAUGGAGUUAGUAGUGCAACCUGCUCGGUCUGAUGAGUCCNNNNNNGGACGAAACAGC

# Variants of: B1
# experimentDescription: normalized RNA/DNA level without ligand (relative to sTRSVctl = 100) (log10 (% of sTRSVctl)); HEK293T; ligand: cyclic di-GMP (c-di-GMP-II aptamer); higher = less ribozyme self-cleavage, higher mRNA level
# studyConditions: reporter: mCherry (pCS4076), ligand present: no
Number only, no unit.

Problem: State the recorded normalized RNA/DNA level without ligand (log10) for this entry: AGGUGU
Result: 1.66

Further cases:
Problem: State the recorded normalized RNA/DNA level without ligand (log10) for this entry: AGGGCA
Result: 1.76

Problem: State the recorded normalized RNA/DNA level without ligand (log10) for this entry: CUCGCG
Result: 1.86

Problem: State the recorded normalized RNA/DNA level without ligand (log10) for this entry: CAGGCG
Result: 1.75

Problem: State the recorded normalized RNA/DNA level without ligand (log10) for this entry: CGUCCC
Result: 1.75

Problem: State the recorded normalized RNA/DNA level without ligand (log10) for this entry: CGACAG
Result: 1.8

Problem: State the recorded normalized RNA/DNA level without ligand (log10) for this entry: UUAGCU
Result: 1.78
